Items are presented alongside their recorded cell viability.
- Test system: P12-Ichikawa
- assay_remarks: cell viability relative to DMSO control; higher = less cytotoxic
- assay_conditions: RPMI 5 mM glucose + 10% dialyzed FBS; 48 h; 1.71 µM
recorded_metric: cell viability (%)

molecule | unit_abbrev | test_value
CC(=O)Nc1ccc([C@H](C)C(=O)Nc2ncc(C(C)C)s2)cc1 | % | 99.7
Cc1cccc(C)c1OCC(=O)N[C@@H](Cc1ccccc1)[C@@H](O)C[C@H](Cc1ccccc1)NC(=O)[C@H](C(C)C)N1CCCNC1=O | % | 79.2
C[C@@H]1COCCN1C\2=C\C(=O)N\3CC[C@H](N(CC4=CN=CC(=C4)Cl)C3=N2)C(F)(F)F | % | 99.8
C\C1=C\C(=O)C2=C(C=CC=C2)C1=O | % | 118
O=C1C[C@@H](c2ccc(O)cc2)Oc2cc(O)cc(O)c21 | % | 104
CC(=O)NC(CS)C(=O)O (stereo not drawn) | % | 88.8
CN1\C(=C(\O)C2=C(C=CS2)[S+]1([O-])=O)C(=O)NC3=CC=CC=N3 | % | 109
COC[C@@H](NC(C)=O)C(=O)NCc1ccccc1 | % | 116

----------
Items are presented alongside their recorded cell viability.
- Tested on: NOMO1
- assay_remarks: cell viability relative to DMSO control; higher = less cytotoxic
- assay_conditions: RPMI 5 mM glucose + 10% FBS; 48 h; 0.569 µM

test_smiles | cell viability [%]
CN(C)C(=O)c1ccc([S+](=O)([O-])c2ccc(NC(=O)[C@@](C)(O)C(F)(F)F)c(Cl)c2)cc1 | 112
C[N+]1(C)[C@@H]2C[C@@H](OC(=O)[C@H](CO)c3ccccc3)C[C@H]1[C@@H]1O[C@@H]12.[Br-] | 86.9
C[C@H]1C[C@H]2[C@@H]3CCC4=CC(=O)C=C[C@]4(C)[C@@]3(F)[C@@H](O)C[C@]2(C)[C@@]1(O)C(=O)CO | 131
NC(=O)c1ncn([C@@H]2O[C@H](CO)[C@@H](O)[C@H]2O)n1 | 102

----------
- Tested on: SEM cells
- assay_remarks: AUC of viability dose-response curve (% viability x log10 dose units); higher = less sensitive
- assay_conditions: HPLM + 10% dialyzed FBS; 48 h
Friendly reminder: AUC of viability dose-response curve below 400 is fulfilled, at or above is not fulfilled.

test_smiles | experimental_system | category_label
C[C@@]12O[C@@H](C[C@]1(O)CO)n1c3ccccc3c3c4c(c5c6ccccc6n2c5c31)CNC4=O | SEM cells | fulfilled
O=C1Nc2ccc(Cl)cc2[C@@](C#CC2CC2)(C(F)(F)F)O1 | SEM cells | not fulfilled
CN(C/C=C/C#CC(C)(C)C)Cc1cccc2ccccc12 | SEM cells | not fulfilled

----------
- Test system: SEM cells
- assay_remarks: cell viability relative to DMSO control; higher = less cytotoxic
- assay_conditions: RPMI 5 mM glucose + 10% FBS; 48 h; 1.71 µM

compound | cell viability / %
CCCCNc1cc(C(=O)O)cc([S+](N)(=O)[O-])c1Oc1ccccc1 | 112
CC1(C)C(=O)N(CCN2CCC(C(=O)c3ccc(F)cc3)CC2)c2ccccc21 | 100
CCOc1ccc(Nc2nc(-c3c(C)nc4ccccn34)cs2)cc1 | 13.3
Cc1cccc(C)c1OCC(=O)N[C@@H](Cc1ccccc1)[C@@H](O)C[C@H](Cc1ccccc1)NC(=O)[C@H](C(C)C)N1CCCNC1=O | 90.9
CCC(=O)OCC(=O)[C@@]1(OC(=O)CC)[C@@H](C)C[C@H]2[C@@H]3CCC4=CC(=O)C=C[C@]4(C)[C@@]3(F)[C@@H](O)C[C@@]21C | 71.5
CN1\C(=C(\O)C2=C(C=CS2)[S+]1([O-])=O)C(=O)NC3=CC=CC=N3 | 103
OC(=O)\C1=C\N(C2=CC=C(F)C=C2)C3=C(C=C(F)C(=C3)N4CCNCC4)C1=O | 95.7
O=C(NC[C@H](O)CN1CCc2ccccc2C1)c1cc(NC2COC2)ncn1 | 108
CCOC(=O)[C@H](CCc1ccccc1)N[C@@H](C)C(=O)N1CCC[C@H]1C(=O)O | 94.5
C\C1=C\N([C@H]2C[C@H](N=[N+]=[N-])[C@@H](CO)O2)C(=O)NC1=O | 104
C\C1=C\C(=O)C2=C(C=CC=C2)C1=O | 89.2
CC(=O)OCC(=O)[C@@]12\N=C(C)/O[C@@H]1C[C@H]3[C@@H]4CCC/5=C/C(=O)/C=C\[C@]5(C)[C@H]4[C@@H](O)C[C@]23C | 113
O=C(CO)N1CCC(c2n[nH]c(-c3ccc(Cl)cc3)c2-c2ccncn2)CC1 | 106
O=C(/C=C/c1c(C(=O)[O-])[nH]c2cc(Cl)cc(Cl)c12)Nc1ccccc1 | 122
Cc1nccn1CC1CCc2c(c3ccccc3n2C)C1=O (stereo not given) | 104
CC1=C(C=CC=C1)N2\C(=N/C3=C(C(=CC=C3)C)C2=O)C[N]4N=CC5=C4N=CN=C5N | 135
COc1cc2c(Oc3ccc(NC(=O)C4(C(=O)Nc5ccc(F)cc5)CC4)cc3F)ccnc2cc1OCCCN1CCOCC1 | 13.5
CCN(CC)CCCCNc1nc2cc(Cl)c(Cl)cc2nc1-c1ccc(-c2cccs2)s1 | 98.9
O=C1Nc2ccc(Cl)cc2[C@@](C#CC2CC2)(C(F)(F)F)O1 | 87.8
CCN(CC)C(=S)SSC(=S)N(CC)CC | 32.9
CC[C@H]1/C=C\C=C/C[C@@H](C)[C@H](O)[C@@](C)(O)C(=O)[C@@H](C)[C@H](O)[C@@H](C)C(=O)[C@@H](C)[C@H](O)[C@@H](C)/C=C/C(=O)O[C@@H]2[C@H](C)[C@H](CC1)O[C@]1(CC[C@H](C)[C@H](C[C@@H](C)O)O1)[C@H]2C | 58.2
CCc1c(C(=O)C(N)=O)c2c(OCC(=O)O)cccc2n1Cc1ccccc1 | 111
NC(=O)c1ncn([C@@H]2O[C@H](CO)[C@@H](O)[C@H]2O)n1 | 95.9
[NH2][Pt]([NH2])([Cl])[Cl] | 71
CCOC(=O)N1CCN(/[N+]([O-])=N/Oc2ccc([N+](=O)[O-])cc2[N+](=O)[O-])CC1 | 81.5
